- ASSAY SUMMARY: Oral pharmacokinetics and bioavailability in rats
- Format: in vivo
- CONDITION SET: female, Sprague Dawley, rat, plasma, po, 10 mg/kg, AUClast, female rats, 10 mg/kg PO, GeoMean
PROPERTY LABEL: AUC(0-t) (µg·h/mL)
Please reply with the bare figure in µg·h/mL and do not write the unit itself.

# AUC(0-t) of C[C@]12CC[C@H](n3ccnc3)CC1=CC[C@@H]1[C@@H]2CC[C@]2(C)C(n3cnc4ccccc43)=CC[C@@H]12 = 11.6

---

- ASSAY SUMMARY: Oral pharmacokinetics and bioavailability in rats
- Type: in vivo
- CONDITION SET: male, Sprague Dawley, rat, plasma, po, 10 mg/kg, AUClast, male rats, 10 mg/kg PO, GeoMean
PROPERTY LABEL: AUC(0-t) (ng·h/mL)
Write the answer as a number in ng·h/mL, unit excluded.

// AUC(0-t) value for C[C@]12CC[C@H](n3ccnc3)CC1=CC[C@@H]1[C@@H]2CC[C@]2(C)C(n3cnc4ccccc43)=CC[C@@H]12 [Compound 2] : 7700

---

- ASSAY SUMMARY: Oral pharmacokinetics and bioavailability in rats
- Type: in vivo
- CONDITION SET: female, Sprague Dawley, rat, plasma, po, 10 mg/kg, Vz/F, female rats, 10 mg/kg PO, GeoMean
PROPERTY LABEL: Vd/F (L/kg)
# output: bare number, implied unit L/kg

The measured Vd/F associated with C[C@]12CC[C@H](n3ccnc3)CC1=CC[C@@H]1[C@@H]2CC[C@]2(C)C(n3cnc4ccccc43)=CC[C@@H]12 reads 16.3

---

- ASSAY SUMMARY: Intravenous pharmacokinetics in rats
- Type: in vivo
- CONDITION SET: female, Sprague Dawley, rat, plasma, iv, 1 mg/kg, Vz, female rats, 1 mg/kg IV, GeoMean
PROPERTY LABEL: Vd (L/kg)
# unit: L/kg | format: bare number

Please fill in: Vd reported for C[C@]12CC[C@H](n3ccnc3)CC1=CC[C@@H]1[C@@H]2CC[C@]2(C)C(n3cnc4ccccc43)=CC[C@@H]12 = 6.08

---

- ASSAY SUMMARY: Oral pharmacokinetics and bioavailability in rats
- Type: in vivo
- CONDITION SET: male, Sprague Dawley, rat, plasma, po, 10 mg/kg, Tmax, male rats, 10 mg/kg PO, individual rat
PROPERTY LABEL: Tmax (h)
Please state the figure in h; there is no need to write the unit.

So, C[C@]12CC[C@H](n3ccnc3)CC1=CC[C@@H]1[C@@H]2CC[C@]2(C)C(n3cnc4ccccc43)=CC[C@@H]12 [Compound 2] ? Its Tmax was 6

---

- ASSAY SUMMARY: Intravenous pharmacokinetics in rats
- Format: in vivo
- CONDITION SET: male, Sprague Dawley, rat, plasma, iv, 1 mg/kg, Cmax, male rats, 1 mg/kg IV, GeoMean (third rat excluded)
PROPERTY LABEL: Cmax (ng/mL)
Just the number in ng/mL, nothing appended.

Lab book: Cmax of C[C@]12CC[C@H](n3ccnc3)CC1=CC[C@@H]1[C@@H]2CC[C@]2(C)C(n3cnc4ccccc43)=CC[C@@H]12 noted as 305

---

- ASSAY SUMMARY: Intravenous pharmacokinetics in rats
- Assay type: in vivo
- CONDITION SET: female, Sprague Dawley, rat, plasma, iv, 1 mg/kg, Cmax, female rats, 1 mg/kg IV, individual rat
PROPERTY LABEL: Cmax (ng/mL)
Give your result in ng/mL as a bare value.

In plain terms, C[C@]12CC[C@H](n3ccnc3)CC1=CC[C@@H]1[C@@H]2CC[C@]2(C)C(n3cnc4ccccc43)=CC[C@@H]12 has a documented Cmax of 296

---

- ASSAY SUMMARY: Intravenous pharmacokinetics in rats
- Format: in vivo
- CONDITION SET: male, Sprague Dawley, rat, plasma, iv, 1 mg/kg, Tmax, male rats, 1 mg/kg IV, individual rat
PROPERTY LABEL: Tmax (min)
Give the value, in units of min, as a plain number.

Note to self: Tmax recorded for C[C@]12CC[C@H](n3ccnc3)CC1=CC[C@@H]1[C@@H]2CC[C@]2(C)C(n3cnc4ccccc43)=CC[C@@H]12 was 5

---

- ASSAY SUMMARY: Intravenous pharmacokinetics in rats
- Type: in vivo
- CONDITION SET: female, Sprague Dawley, rat, plasma, iv, 1 mg/kg, T1/2, female rats, 1 mg/kg IV, individual rat
PROPERTY LABEL: half-life (min)
Report the value in min with no unit label.

Record C[C@]12CC[C@H](n3ccnc3)CC1=CC[C@@H]1[C@@H]2CC[C@]2(C)C(n3cnc4ccccc43)=CC[C@@H]12 , field half-life: 846

---

- ASSAY SUMMARY: Oral pharmacokinetics and bioavailability in rats
- Assay type: in vivo
- CONDITION SET: female, Sprague Dawley, rat, plasma, po, 50 mg/kg, Tmax, female rats, 50 mg/kg PO, individual rat
PROPERTY LABEL: Tmax (h)
Reply with just the number (in h).

// C[C@]12CC[C@H](n3ccnc3)CC1=CC[C@@H]1[C@@H]2CC[C@]2(C)C(n3cnc4ccccc43)=CC[C@@H]12 : Tmax value = 23.3

---

- ASSAY SUMMARY: Intravenous pharmacokinetics in rats
- Type: in vivo
- CONDITION SET: female, Sprague Dawley, rat, plasma, iv, 1 mg/kg, AUClast, female rats, 1 mg/kg IV, GeoMean
PROPERTY LABEL: AUC(0-t)

Note to self: AUC(0-t) recorded for C[C@]12CC[C@H](n3ccnc3)CC1=CC[C@@H]1[C@@H]2CC[C@]2(C)C(n3cnc4ccccc43)=CC[C@@H]12 was 2400 ng·h/mL

---

- ASSAY SUMMARY: Oral pharmacokinetics and bioavailability in rats
- Assay type: in vivo
- CONDITION SET: male, Sprague Dawley, rat, plasma, po, 10 mg/kg, Vz/F, male rats, 10 mg/kg PO, individual rat
PROPERTY LABEL: Vd/F (L/kg)
Your answer should be a plain number; it is taken to be in L/kg.

The reported value for C[C@]12CC[C@H](n3ccnc3)CC1=CC[C@@H]1[C@@H]2CC[C@]2(C)C(n3cnc4ccccc43)=CC[C@@H]12 in terms of Vd/F is 12.4

---

- ASSAY SUMMARY: Oral pharmacokinetics and bioavailability in rats
- Type: in vivo
- CONDITION SET: male, Sprague Dawley, rat, plasma, po, 10 mg/kg, T1/2, male rats, 10 mg/kg PO, individual rat
PROPERTY LABEL: half-life (h)
Write the value in h as a bare number.

Record C[C@]12CC[C@H](n3ccnc3)CC1=CC[C@@H]1[C@@H]2CC[C@]2(C)C(n3cnc4ccccc43)=CC[C@@H]12 . Reported half-life: 9.8

Values from paper PMC9998351
